experiment: NCI Yeast Anticancer Drug Screen. Data for the mlh1 rad18 strain (AID 175); conditions: S. cerevisiae mlh1 rad18 strain growth inhibition; at 50.0 µM; stronger effect = higher value
About 79,000 compounds went through this panel and 15% of them were active in at least one assay; those are over-represented in the sample as a whole.
parameterMeasured: growth inhibition (%)
Reply numerically in %, unit not repeated.

Example entries and their recorded answers appear below.
* Cc1ccc(Nc2c3c(c(C#N)c4nc5ccccc5n24)CCCC3)cc1 | 6.1
* Oc1ccccc1N=Cc1ccc(Cl)cc1 | 60.5
* CCC(c1ccc(O)cc1)C(CC)c1ccc(OCCN)cc1 (stereo not drawn) | 14.6
* Nc1nc(F)nc2c1ncn2C1OC(COP(=O)(O)O)C(O)C1O (stereo not drawn) | -26.4
* CCC(C)(c1ccc(O)c(C)c1)c1ccc(O)c(C)c1 | 92.2
* Cc1cc(C)c(N2C(=O)CC(Sc3ccccc3N)C2=O)c(C)c1 (stereo not drawn) | 34.3
* O=[N+]([O-])c1c(/C=N/Nc2ccccc2)oc(-c2ccc3c(c2)OCO3)c1-c1ccc2c(c1)OCO2 | 84.2
* O=[N+]([O-])/C(C(Cl)=C(Cl)Cl)=C1/OCCS1 | 86.2

// growth inhibition value for `O=C1C=CC(=O)N1c1ccc(I)cc1` : 92.2

Measured growth inhibition of `CC(=O)N1C(=O)/C(=C\C(=O)c2ccc([N+](=O)[O-])cc2)c2ccccc21` : 85.7

So for `COC(=O)c1n[nH]c(C)c1N=NN(C)CCC#N` , the logged growth inhibition turned out to be 98.8

Recorded result, `COc1cc(/C=C/c2sc3ccccc3[n+]2C)ccc1N(C)C` , growth inhibition: 92.5
